Reference for the values: patent US20260226068A1

# assay_system: IL-17A/A (Homo sapiens)
# assay_remarks: IL-17A/A HEK-Blue cell assay (SEAP reporter)
# conditions_used: HEK-Blue IL-17A reporter cells, IL17A/A 5 ng/mL, 20 hours, SEAP read at A630; read-out: HEK-Blue IL17AA (IC50 for IL-17A/A inhibition)
Can you tell me IC50 for the items I'm about to list?

Study these solved cases before continuing.
CCn1nccc1C(=O)N[C@H](c1cn2nc(C[C@H]3C[C@@H](C(F)(F)F)CNC3=O)c(CN3CCC4(CC4)C3)nc2n1)C1CCC(F)(F)CC1 [Compound 344]: 100 to 1000 nM
CCn1nccc1C(=O)N[C@H](c1cn2nc(C[C@H]3C[C@@H](C(F)(F)F)CNC3=O)c(N3C[C@@H](C)O[C@@H](C)C3)nc2n1)C1CCC(F)(F)CC1 [Compound 247]: < 100 nM
CCn1nccc1C(=O)N[C@H](c1cn2nc(C[C@H]3C[C@@H](C(F)(F)F)CNC3=O)c(CCN3CCOCC3)nc2n1)C1CCC(F)(F)CC1 [Compound 359]: < 100 nM
CCn1nccc1C(=O)N[C@H](c1cn2nc(CC3C[C@@H](C(F)(F)F)CNC3=O)c(N3CCOCC3)nc2n1)C1CCC(F)(F)CC1 (mixture of isomers) [Compound 19]: 100 to 1000 nM
CCn1nccc1C(=O)N[C@H](c1cn2nc(C[C@H]3C[C@@H](C(F)(F)F)CNC3=O)c(CN3CC(C(F)(F)F)C3)nc2n1)C1CCC(F)(F)CC1 [Compound 336]: < 100 nM

Ask | Look up and state reported IC50 for CC[C@@H](c1ccc(F)cc1)[C@H](NC(=O)c1ccnn1CC)c1cn2nc(C[C@H]3C[C@@H](C(F)(F)F)CNC3=O)cnc2n1 [Compound 60]
Reply | < 100 nM

---

# assay_system: IL-17A/A (Homo sapiens, UniProt Q16552)
# assay_remarks: IL-17A/A HEK-Blue cell assay (SEAP reporter)
# conditions_used: HEK-Blue IL-17A reporter cells, IL17A/A 5 ng/mL, 20 hours, SEAP read at A630; read-out: HEK-Blue IL17AA (IC50 for IL-17A/A inhibition)
observation_type: IC50

CCn1nccc1C(=O)N[C@H](c1cn2nc(C[C@H]3C[C@@H](C(F)(F)F)CNC3=O)c(C3CCCCN3C)nc2n1)C1CCC(F)(F)CC1 (some centres unmarked): 0.1 to 1 µM
CCn1nccc1C(=O)N[C@H](c1cn2nc(CC3C[C@@H](C(F)(F)F)CNC3=O)c(N3C[C@H]4CC[C@@H](C3)O4)nc2n1)C1CCC(F)(F)CC1 (single isomer, unassigned) [Compound 83]: < 0.1 µM
Cc1nonc1C(=O)N[C@H](c1cn2nc(C[C@H]3C[C@H](C)CNC3=O)c(C3CCOCC3)nc2n1)C1CCC(F)(F)CC1: 0.1 to 1 µM
O=C(N[C@H](c1cn2nc(C[C@@H]3C[C@@H](C(F)(F)F)CNC3=O)cnc2n1)C1CCC(F)(F)CC1)c1nonc1C1CC1 (single isomer, unassigned): 0.1 to 1 µM

# next molecule below
Ask | Hello, please tell me recorded IC50 for this one: "CCn1nccc1C(=O)N[C@H](c1cn2nc(C[C@H]3CC(F)(F)CNC3=O)c(C3CCOCC3)nc2n1)[C@H]1CC[C@H](C)CC1"
Reply | < 0.1 µM

---

# assay_system: IL-17A/F (Homo sapiens, UniProt Q16552+Q96PD4)
# assay_remarks: IL-17A/F HEK-Blue cell assay (SEAP reporter)
# conditions_used: HEK-Blue IL-17A reporter cells, IL17A/F 5 ng/mL, 20 hours, SEAP read at A630; read-out: HEK-Blue IL17AF (IC50 for IL-17A/F inhibition)
pIC50: −log10 of the molar value.
For each record, write down the corresponding pIC50.

Sample answers from the record:
CCn1nccc1C(=O)N[C@H](c1cn2nc(C[C@H]3C[C@@H](C(F)(F)F)CNC3=O)c([C@H]3COCCC3(F)F)nc2n1)C1CCC(F)(F)CC1 (single isomer, unassigned) [Compound 257]: 6.00 to 7.00
CCn1nccc1C(=O)N[C@H](c1cn2nc(CC3C[C@@H](C(F)(F)F)CNC3=O)c(N3CCOCC3)nc2n1)[C@H]1CC[C@H](C)CC1 (single isomer, unassigned) [Compound 23]: < 6.00
CCn1nccc1C(=O)N[C@H](c1cn2nc(C[C@H]3C[C@@H](C(F)(F)F)CNC3=O)c(N(C)C)nc2n1)[C@H]1CCCC(F)(F)C1 [Compound 117]: 6.00 to 7.00
CCn1nccc1C(=O)N[C@H](c1cn2nc(C[C@H]3C[C@@H](C(F)(F)F)CNC3=O)c(C3CCOCC3)nc2n1)C1CCC(F)(F)CC1 [Compound 88]: 6.00 to 7.00

// switching to the query compound
Ask | Tell us which pIC50 value is on record for CCn1nccc1C(=O)N[C@@H](c1cn2nc(C[C@H]3C[C@@H](C(F)(F)F)CNC3=O)c(C3CCOCC3)nc2n1)C1CC2CC2C1 (some centres unmarked) [Compound 198]
Reply | 6.00 to 7.00

---

# assay_system: IL-17A/A (Homo sapiens)
# assay_remarks: IL-17A/A HEK-Blue cell assay (SEAP reporter)
# conditions_used: HEK-Blue IL-17A reporter cells, IL17A/A 5 ng/mL, 20 hours, SEAP read at A630; read-out: HEK-Blue IL17AA (IC50 for IL-17A/A inhibition)
pIC50: −log10 of the molar value.
Would you mind telling me the reported pIC50 of each entry?

Would you mind giving pIC50 for every molecule in the list below?
1. CC(C)n1nccc1C(=O)N[C@H](c1cn2nc(C[C@H]3C[C@@H](C(F)(F)F)CNC3=O)c(C3CCOCC3)nc2n1)[C@@H]1CCCC(F)(F)C1 [Compound 127]
2. CCn1nccc1C(=O)N[C@H](c1cn2nc(C[C@H]3C[C@@H](C(F)(F)F)CNC3=O)c(C3(F)CCOCC3)nc2n1)C1CCC(F)(F)CC1 [Compound 212]
3. Cc1nccnc1C(=O)N[C@H](c1cn2nc(C[C@H]3C[C@@H](C(F)(F)F)CNC3=O)c(C3CCOCC3)nc2n1)C1CCC(F)(F)CC1 [Compound 246]

Reply |
> 7.00
> 7.00
6.00 to 7.00

Batch lookup, pIC50 per entry.
1. CCn1nccc1C(=O)N[C@H](c1cn2nc(C[C@H]3C[C@@H](C(F)(F)F)CNC3=O)c(C(C)C(F)(F)F)nc2n1)C1CCC(F)(F)CC1 (single isomer, unassigned) [Compound 175]
2. CCn1nccc1C(=O)N[C@H](c1cn2nc(C[C@H]3C[C@@H](C(F)(F)F)CNC3=O)c(C3CCOC3)nc2n1)[C@@H]1CCCC(F)(F)C1 (single isomer, unassigned) [Compound 72]

Reply |
1: > 7.00; 2: > 7.00

---

# assay_remarks: Mouse oral bioavailability
# Type: in vivo
# conditions_used: C57BL/6J mice, PO 10 mg/kg vs IV 1 mg/kg, plasma AUC, read-out: % F (Mouse), oral bioavailability
Rule: bioavailability of 50% or more gives met; anything lower gives not met.

Some solved cases for reference:
CCn1nccc1C(=O)N[C@H](c1cn2nc(C[C@H]3C[C@@H](C(F)(F)F)CNC3=O)c(C3CCOC3)nc2n1)[C@H]1CCCC(F)(F)C1 (single isomer, unassigned) [Compound 204]: not met
CCn1nccc1C(=O)N[C@H](c1cn2nc(C[C@H]3C[C@@H](C(F)(F)F)CNC3=O)c(C3CCCOC3)nc2n1)[C@@H]1CCCC(F)(F)C1 (single isomer, unassigned) [Compound 69]: not met
CC(C)n1ncnc1C(=O)N[C@H](c1cn2nc(C[C@H]3C[C@@H](C(F)(F)F)CNC3=O)c(C3CCOCC3)nc2n1)C1CCC(F)(F)CC1 [Compound 229]: met

Now consider the entry below.
Ask | Decide: is the reported value of bioavailability for CCn1nccc1C(=O)N[C@H](c1cn2nc(C[C@H]3C[C@@H](C(F)(F)F)CNC3=O)c(C3CC4CCC(C3)O4)nc2n1)C1CCC(F)(F)CC1 (some centres unmarked) [Compound 153] equal to or greater than 50%?
Reply | not met

---

# assay_system: IL-17A/F (Homo sapiens, UniProt Q16552+Q96PD4)
# Sequence (Q16552 24-155): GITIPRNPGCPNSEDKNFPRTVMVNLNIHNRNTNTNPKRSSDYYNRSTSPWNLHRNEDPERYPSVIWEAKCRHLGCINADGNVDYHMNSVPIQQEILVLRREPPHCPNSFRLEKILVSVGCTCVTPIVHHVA
# Sequence (Q96PD4 31-163): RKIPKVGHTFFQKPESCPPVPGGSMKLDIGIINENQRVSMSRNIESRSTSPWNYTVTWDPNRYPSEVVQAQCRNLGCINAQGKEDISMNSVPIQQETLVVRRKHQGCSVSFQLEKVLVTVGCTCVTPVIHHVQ
# assay_remarks: IL-17A/F HEK-Blue cell assay (SEAP reporter)
# conditions_used: HEK-Blue IL-17A reporter cells, IL17A/F 5 ng/mL, 20 hours, SEAP read at A630; read-out: HEK-Blue IL17AF (IC50 for IL-17A/F inhibition)
pIC50: −log10 of the molar value.
observation_type: pIC50

Cn1nccc1C(=O)N[C@H](c1cn2nc(C[C@H]3C[C@@H](C(F)(F)F)CNC3=O)c([C@H]3CCCOC3)nc2n1)C1CCC(F)(F)CC1 (single isomer, unassigned) [Compound 263]: < 6.00
CCn1nccc1C(=O)N[C@H](c1cn2nc(C[C@H]3C[C@@H](C(F)(F)F)CNC3=O)c(N3CCC(C)(O)CC3)nc2n1)C1CCC(F)(F)CC1 [Compound 194]: 6.00 to 7.00
O=C(N[C@H](c1cn2nc(C[C@H]3C[C@H](C(F)(F)F)CNC3=O)cnc2n1)C1CCC(F)(F)CC1)c1nonc1C1CC1 [Compound 53]: < 6.00
CCn1cnnc1C(=O)N[C@H](c1cn2nc(C[C@H]3C[C@@H](C(F)(F)F)CNC3=O)c(C3CCOCC3)nc2n1)C1CCC(F)(F)CC1 [Compound 415]: < 6.00
CCn1nccc1C(=O)N[C@H](c1cn2nc(C[C@H]3C[C@@H](C(F)(F)F)CNC3=O)c(C3(C)CCOCC3)nc2n1)C1CCC(F)(F)CC1 [Compound 164]: 6.00 to 7.00
O=C(N[C@H](c1cn2nc(C[C@H]3C[C@@H](C(F)(F)F)CNC3=O)cnc2n1)C1CCC(F)(F)CC1)c1nonc1[C@@H]1CC1(F)F (single isomer, unassigned) [Compound 77]: < 6.00

Record pIC50 for all entries; do not skip any.
1. O=C(N[C@H](c1cn2nc(C[C@H]3C[C@@H](C(F)(F)F)CNC3=O)c(C3CCOCC3)nc2n1)C1CCC(F)(F)CC1)c1conc1C1CC1(F)F (single isomer, unassigned) [Compound 144]
2. CCn1nccc1C(=O)N[C@H](c1cn2nc(C[C@H]3C[C@@H](C(F)(F)F)CNC3=O)c(C3COCCC3(F)F)nc2n1)C1CCC(F)(F)CC1 (single isomer, unassigned) [Compound 259]
3. CCn1nccc1C(=O)N[C@H](c1cn2nc(C[C@H]3C[C@@H](C(F)(F)F)CNC3=O)c([C@@H]3CCCN(C)C3)nc2n1)C1CCC(F)(F)CC1 (single isomer, unassigned) [Compound 401]

Reply |
6.00 to 7.00
> 7.00
< 6.00

# return pIC50 for each item in the list
1. CCc1nonc1C(=O)N[C@H](c1cn2nc(C[C@H]3C[C@H](C)CNC3=O)c(C3CCOCC3)nc2n1)C1CCC(F)(F)CC1 [Compound 395]
2. CCn1nccc1C(=O)N[C@H](c1cn2nc(C[C@@H]3C[C@@H](C(F)(F)F)CNC3=O)cnc2n1)C1CCC(F)(F)CC1 [Compound 28]

Reply |
< 6.00
< 6.00
